assay: In vivo pharmacokinetic study in rats after oral administration (UPLC-QqQ-MS/MS of plasma); parameters: species or system SD rats; conditions: male, SD, rat, oral stilbene/HP-β-CD inclusion complex 2.1 g/kg, plasma, n = 6
Parameter: half-life. Scope: all listed entries.
Metric name: half-life (h)

1. COc1cc(O)cc(/C=C/c2ccccc2)c1CC=C(C)C; 6
2. COc1cc(/C=C/c2ccccc2)c(C(=O)O)c(O)c1CC=C(C)C; 13
3. COc1cc(O)c(C(=O)O)c(/C=C/c2ccccc2)c1; 9

###

test: In vivo pharmacokinetic study in rats after oral administration (UPLC-QqQ-MS/MS of plasma); design: species or system SD rats; conditions: male, SD, rat, oral CCMLE 232 mg/kg, plasma, n = 6
Parameter: half-life. Scope: all listed entries.
Metric name: half-life

1. COc1cc(O)c(C(=O)O)c(/C=C/c2ccccc2)c1; 5.5 h
2. COc1cc(O)cc(/C=C/c2ccccc2)c1CC=C(C)C; 14 h
3. COc1cc(/C=C/c2ccccc2)c(C(=O)O)c(O)c1CC=C(C)C; 11 h

###

assay: In vivo pharmacokinetic study in rats after oral administration (UPLC-QqQ-MS/MS of plasma); parameters: species or system SD rats; conditions: male, SD, rat, oral stilbene/HP-β-CD inclusion complex 2.1 g/kg, plasma, n = 6
Metric name: AUC(0-inf) (ng·h/mL)

1) COc1cc(O)c(C(=O)O)c(/C=C/c2ccccc2)c1; 803
2) COc1cc(/C=C/c2ccccc2)c(C(=O)O)c(O)c1CC=C(C)C; 470
3) COc1cc(O)cc(/C=C/c2ccccc2)c1CC=C(C)C; 12
